# test-system: E4-CPP (Fam-labelled octaarginine cell-penetrating peptide with four EIAALEK units at its N-terminus)
# test-description: other fluorescence titration; En-CPP (Fam) fixed at 50 nM, AIP-Kn (Tmr) added to Tmr/Fam ratios 0-2.0; PBS pH 7.0, 25 °C; excitation 495 nm, Fam fluorescence at 525 nm quenched by FRET to Tmr; Kd by fit to equation (1), with the saturation intensity Fs taken from AIP-K4/E4-CPP
endpoint: Kd

Look up Kd for this substance: AIP-K4 (Tmr-labelled autophagy-inducing peptide with four KIAALKE units at its C-terminus) 2 nM

---

# test-system: E3-CPP (Fam-labelled octaarginine cell-penetrating peptide with three EIAALEK units at its N-terminus)
# test-description: other fluorescence titration; En-CPP (Fam) fixed at 50 nM, AIP-Kn (Tmr) added to Tmr/Fam ratios 0-2.0; PBS pH 7.0, 25 °C; excitation 495 nm, Fam fluorescence at 525 nm quenched by FRET to Tmr; Kd by fit to equation (1), with the saturation intensity Fs taken from AIP-K4/E4-CPP
endpoint: Kd (nM)
# number only, unit nM dropped from output

Field request: Kd | item: AIP-K3 (Tmr-labelled autophagy-inducing peptide with three KIAALKE units at its C-terminus) 20
